Biological target: human orexin 2 receptor (Homo sapiens, UniProt O43614)
Construct: stably expressing the full-length human orexin 2 receptor; expressed in transfected cells; host or cells: CHO-K1 (CHO-K1/hOX2), co-expressing aequorin
Sequence (O43614 whole entry): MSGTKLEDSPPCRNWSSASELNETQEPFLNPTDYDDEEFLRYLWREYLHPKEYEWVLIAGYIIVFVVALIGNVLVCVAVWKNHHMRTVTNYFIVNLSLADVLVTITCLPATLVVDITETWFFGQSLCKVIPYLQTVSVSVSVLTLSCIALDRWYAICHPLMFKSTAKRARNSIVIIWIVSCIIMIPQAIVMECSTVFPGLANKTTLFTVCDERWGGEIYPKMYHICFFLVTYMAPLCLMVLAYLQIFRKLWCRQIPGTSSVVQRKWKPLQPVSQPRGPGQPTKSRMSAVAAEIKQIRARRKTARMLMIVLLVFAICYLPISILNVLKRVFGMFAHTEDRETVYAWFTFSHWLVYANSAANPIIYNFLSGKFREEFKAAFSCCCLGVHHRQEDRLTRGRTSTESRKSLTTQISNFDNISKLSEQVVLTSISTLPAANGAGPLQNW
Experiment: Assay B: In vitro testing of OX2R potency: OX2R IP1 (HTRF, CHO-K1/hOX2 cells, Orexin A as agonist)
Format: cell-based
Settings: Orexin A 0.5 nM
Measurement label: Kb
Please don't drop the unit; write it after the number.

Query: Tell me its Kb given "CCN(C(=O)c1c(-n2nccn2)ccc(C)c1F)[C@@H](C)COc1ncc(C(F)(F)F)cc1F" as the entry.
Reply: 49 nM

Query: Provide only the value of recorded Kb for "CCN(C(=O)c1ccc(Cl)cc1-n1nccn1)[C@@H](C)COc1ccc(Cl)cn1"
Reply: 21 nM

Query: In one line, give reported Kb of the entry "CCN(C(=O)c1cc(C)ccc1-c1ncccn1)[C@@H](C)COc1ccc(C(F)(F)F)cn1" .
Reply: 11 nM

Query: For the compound "CCN(C(=O)c1ccc(C)cc1-c1nnc(C)o1)[C@@H](C)COc1ccc(OC(F)(F)F)cn1" , report Kb.
Reply: 440 nM

Query: Could you please provide reported Kb for "CCN(C(=O)c1cc(C#N)ccc1-n1nccn1)[C@@H](C)COc1ccc(C(F)(F)F)cn1" ? Thanks!
Reply: 37 nM

Query: Give the measured Kb for "CCN(C(=O)c1ccc(C)cc1-c1nnc(C)o1)[C@@H](C)COc1ccc(Cl)cn1"
Reply: 877 nM

Query: Check the records and state Kb for "CCN(C(=O)c1ccc(F)cc1-c1nnc(C)o1)[C@@H](C)COc1ccc(C(F)(F)F)cn1"
Reply: 2070 nM

Query: Look up Kb of "CCN(C(=O)c1cccc(F)c1-c1nnc(C)o1)[C@@H](C)COc1ccc(C(F)(F)F)cn1" and report it.
Reply: 218 nM

Query: Supply Kb value. Item: "CCN(C(=O)c1cccc(F)c1-c1nnc(C)o1)[C@@H](C)COc1ccc(Cl)cn1"
Reply: 542 nM

Query: In one line, give reported Kb of the entry "CCN(C(=O)c1ccccc1-n1nccn1)[C@@H](C)COc1ccc(C(F)(F)F)cn1" .
Reply: 21 nM

Query: Please supply the value of reported Kb for the item "CCN(C(=O)c1ccccc1-c1cnc(OC)nc1)[C@@H](C)COc1ccc(C(F)(F)F)cn1"
Reply: 92 nM

Query: Using known records, supply Kb for "CCN(C(=O)c1cc(F)cc(F)c1-n1nccn1)[C@@H](C)COc1ccc(Cl)cn1"
Reply: 117 nM

Query: Specify Kb for "CCN(C(=O)c1cccc(C)c1-c1nnc(C)o1)[C@@H](C)COc1ccc(Cl)cn1" and stop.
Reply: 82 nM

Query: State, in one line, measured Kb of "CCN(C(=O)c1cc(F)ccc1-c1ncccn1)[C@@H](C)COc1ccc(C(F)(F)F)cn1"
Reply: 32 nM

Query: # return recorded Kb for input "CCN(C(=O)c1ccccc1-c1nnc(C)o1)[C@@H](C)COc1ncc(C(F)(F)F)cc1F"
Reply: 1000 nM

Query: Please give measured Kb of the following entry: "CCN(C(=O)c1ccccc1-c1cncc(C#N)c1)[C@@H](C)COc1ccc(C(F)(F)F)cn1"
Reply: 124 nM

Query: Read the entry "CCN(C(=O)c1ccccc1-c1cnn(C)c1)[C@@H](C)COc1ccc(C(F)(F)F)cn1" and write its reported Kb.
Reply: 74 nM

Query: Let me know recorded Kb for "CCN(C(=O)c1cccc(F)c1-n1nccn1)[C@@H](C)COc1ccc(Cl)cn1" , thanks.
Reply: 54 nM

Query: Give me measured Kb, please, for this compound: "CCN(C(=O)c1ccc(C#N)cc1-n1nccn1)[C@@H](C)COc1ccc(C(F)(F)F)cn1"
Reply: 1170 nM

Query: Tell us which Kb value is on record for "CCN(C(=O)c1ccccc1-n1nccn1)[C@@H](C)COc1ncc(C(F)(F)F)cc1F"
Reply: 87 nM

Query: Supply recorded Kb for "CCN(C(=O)c1cc(OC)ccc1-n1nccn1)[C@@H](C)COc1ccc(Cl)cn1" here.
Reply: 33 nM

Query: Supply Kb value. Item: "CCN(C(=O)c1ccc(F)cc1-c1ncccn1)[C@@H](C)COc1ccc(Br)cn1"
Reply: 42 nM

Source: patent US10787432B2
